target: T1, recombinant human VEGF165 (human, UniProt P15692-4 27-191, biotinylated (Sulfo-NHS-LC-Biotin) in the competition assays); experiment: Biacore, periplasmic extract, VEGF165 chip, two phase decay fit; set-up: unit not given here
T1 construct: also called hVEGF165; rhVEGF165
T1 sequence (P15692 other isoform, or with tags, fused parts or gaps limits assumed): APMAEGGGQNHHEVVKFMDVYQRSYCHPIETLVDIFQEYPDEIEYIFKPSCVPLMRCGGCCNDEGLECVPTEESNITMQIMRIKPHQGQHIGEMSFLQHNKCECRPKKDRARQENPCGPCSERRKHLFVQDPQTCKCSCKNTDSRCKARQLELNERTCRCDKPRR
observation.type: kd(slow)
Give your answer as a number; write no unit.

Here is how some binders turned out for kd(slow).
>>> result_value("VEGFBII42A05 (VHH, not shown: small tags and cut ends) VHH: EVQLVESGGGLVQPGDSLKLSCAFSGRTFSSYSMGWFRQAQGKEREFVVAISSSGGYIYDSVSLEGRFTISRDNTKNTVYLQMPSLKPEDTADYYCAASRAYGSSRLRLADTYDYWGQGTQVTVSS")
0.00034
>>> result_value("VEGFBII62D10 (VHH, not shown: small tags and cut ends) VHH: EVQLVESEGGLVQAGDSLRLSCAASGRTFSSYSMGWFRQAQGKEREFVVAISSSGNYKYDSVSLEGRFTISRDNTKNTVYLQINSLKPEDTAVYYCAASRAYGSSRLRLGDTYDYWGQGTQVTVSS")
0.00016
>>> result_value("VEGFBII39G04 (VHH, not shown: small tags and cut ends) VHH: EVPLVESGGGLVQAGDSLRLSCAASGRTFSSYSMGWFRQAQGKEREFVVAISSSGNYKYDSASLEGRFTISRDNTKNTVYLQINSLKPEDTAVYYCAASRAYGSSRLRLGDTYDYWGQGTQVTVSS")
0.00074
>>> result_value("VEGFBII22B07 (VHH, not shown: small tags and cut ends) VHH: EVQLVESGGGLVQAGDSLRLSCAASGRTFSSYSMGWFRQAQGKEREFVVAISSSGNYKYDSVSLEGRFTISRDNTKNTVYLQINSLKPEDTAVYYCAASRAYGSSRLRLGDTYDYWGQGTQVTVSS")
"7.8e-05"
>>> result_value("VEGFBII23A09 (VHH, not shown: small tags and cut ends) VHH: EVQLVESGGGLVQPGDSLKLSCAFSGRTFGSYSMGWFRQAQGKEREFVVAISSSGGYIYDSVSLEGRFTISRDNSKNTVYLQTPSLKPEDTAVYYCAASRAYGSSRLRLPDTYDYWGQGTQVTVSS")
"4.6e-05"
>>> result_value("VEGFBII23F11 (VHH, not shown: small tags and cut ends) VHH: EVQLVESGGGLVQPGDSLKLSCAFSGRTFSSYSMGWFRQAQGKEREFVVAISSGGGYIYDSVSLEGRFTISRDNTKNTVYLQTPSLKPEDTADYYCAASRAYGSSRLRLADTYDYWGQGTQVTVSS")
0.00013
>>> result_value("VEGFBII23B04 (VHH, not shown: small tags and cut ends, also purified from E. coli TG1; also called VEGFBII23B4; VEGFBII23B04 (wt)) VHH: EVQLVESGGGLVQTGDSLRLSCEVSGRTFSSYSMGWFRQAQGKEREFVVAISKGGYKYDSVSLEGRFTISKDNAKNTVYLQINSLKPEDTAVYYCASSRAYGSSRLRLADTYEYWGQGTQVTVSS")
"4e-05"
>>> result_value("VEGFBII22E04 (VHH, not shown: small tags and cut ends) VHH: EVQLVESGGGLVQPGDSLKLSCVASGRTSSSYSMGWFRQAQGKEREFVVAISSGGSIYDSVSLQGRFTISRDNTKNTVYLQTPSLKPEDTAVYYCAASRAYASSRLRLADTYDYWGQGTQVTVSS")
0.00011
>>> result_value("VEGFBII22B06 (VHH, not shown: small tags and cut ends) VHH: EVQLVESGGGLVQPGDSLKLSCAASGRTFSSYSMGWFRQAQGKEREFVVAISSSGGYIYDSVSLEGRFTISRDNTKNTVYLQTPSLKPEDTAVYYCAASRAYGSSRLRLADTYDYWGQGTQVTVSS")
"9e-05"
>>> result_value("VEGFBII42D05 (VHH, not shown: small tags and cut ends) VHH: EVQLVESGGGLVQPGDSLKLSCAFSGRTFSSYSMGWFRQAQGKEREFVVAISSSGGYIYDSVSLEGRFTISRDNTKNTVYLQTPSLKPEDTAVYYCAASRAYGSSRLRLADTYDYWGQGTQVTVSS")
0.00015

Could you tell me which kd(slow) is on file for VEGFBII60A09 (VHH, not shown: small tags and cut ends) VHH: EVQLVESGGGLVQPGDSLKLSCAFSGRTFSSYSMGWFRQAQGKEREFVVAISSSGGYIYDSVSLEGRFTISRDNTRNTVYLQTPSLKPEDTADYYCAASRAYGSSRLRLADTYDYWGQGTQVTVSS ?
9.3e-05

Try the binder VEGFBII30C09 (VHH, not shown: small tags and cut ends) VHH: EVQLVESGGGLVQPGDSLKLSCIASGRTSSSYSMGWFRQAQGQEREFVVAISSGGYIYDSVSLQGRFTISRDNTKNTVYLQTPSLKPEDTAVYYCAASRAYGSSRLRLADTYDYWGQGTQVTVSS
7.6e-05

Please do the same for VEGFBII56E11 (VHH, not shown: small tags and cut ends) VHH: EVQLVESGGGLVQPGDSLKLSCAFSGRTFSSYSMGWFRQAQGKEREFVVAISSSGGYIYDSVSLEGRFTISRDNTKNTVYLQTPSLKPEDAADYYCAASRAYGSSRLRLADTYDYWGQGTQVTVSS as well.
0.00014

How about this binder: VEGFBII40H10 (VHH, not shown: small tags and cut ends) VHH: EVQLMESGGGLVQPGDSLKLSCAFSGRTFSSYSMGWFRQAQGKEREFVVAISSSGGYIYDSVSLEGRFTISRDNTKNTVYLQTPSLKPEDTADYYCAASRAYGSSRLRLADTYDYWGQGTQVTVSS
0.00029

Here is the next binder: VEGFBII27G07 (VHH, not shown: small tags and cut ends) VHH: EVQLVESGGGLVQPGDSLKLSCVASGRTSSSYSMGWFRQAQGQEREFVVAISSGGYIYDSVSLQGRFTISRDNTKNTVYLQTPSLKPEDTAVYYCAASRAYGSSRLRLADTYDYWGQGTQVTVSS
3.8e-05
